property: melting point

Item under review: CC(C)OC(=O)Nc1ccc(-c2c(C#N)c3ccc(OCCCNC4CC4)cc3n2C2CCC2)cc1 . Reported melting point?
122 to 125 °C

Item under review: CCOc1ccc2c(C#N)c(-c3ccc(NC(=O)OC4CCN(C(C)=O)CC4)cc3)n(C3CCC3)c2c1 . Reported melting point?
211 to 215 °C

Item under review: Cc1ccnc(Oc2ccc3c(C#N)c(-c4ccc(NS(=O)(=O)N[C@@H](C)C5CC5)cc4)n(C4CCC4)c3c2)n1 . Reported melting point?
227 to 229 °C

Item under review: CCCS(=O)(=O)Nc1ccc(-c2c(C#N)c3ccc(Oc4nccnc4Cl)cc3n2C2CCC2)cc1 . Reported melting point?
227 to 229 °C

Item under review: CC(OC(=O)Nc1ccc(-c2c(C#N)c3cc(OCCCn4cncn4)ccc3n2C2CCC2)cc1)C1CCC1 (stereo not drawn) . Reported melting point?
149 to 150 °C

Item under review: CC(C)OC(=O)Nc1ccc(-c2c(C#N)c3ccc(OCCN4CCC(O)C4)cc3n2C2CCC2)cc1 (stereo not drawn) . Reported melting point?
161 to 165 °C

Item under review: CCCS(=O)(=O)Nc1ccc(-c2c(C#N)c3ccc(-c4cnccc4OC)cc3n2C2CCC2)cc1 . Reported melting point?
240 to 242 °C

Item under review: CCn1c(-c2ccc(NC(=O)C3CC3)cc2)c(C#N)c2ccc(OCCN3CCN(CCOC)CC3)cc21 . Reported melting point?
163.9 to 168.8 °C

Item under review: CC(OC(=O)Nc1ccc(-c2c(C#N)c3ccc(OCCCCn4cncn4)cc3n2C2CCC2)cc1)c1ccc(F)cc1 (stereo not drawn) . Reported melting point?
108 to 110 °C

Item under review: CC(C)Nc1ccc(-c2c(C#N)c3ccc(Oc4ncccn4)cc3n2C2CCC2)cn1 . Reported melting point?
206 to 208 °C

Item under review: CC(C)NC(=O)Nc1ccc(-c2c(C#N)c3ccc(OC4COCOC4)cc3n2C2CCC2)cc1 . Reported melting point?
210 to 212 °C

Item under review: Cc1cccn(-c2ccc3c(C#N)c(-c4ccc(NC(=O)NC(C)C)cc4)n(C4CCC4)c3c2)c1=O . Reported melting point?
266 to 267.5 °C

Item under review: C[C@@H](OC(=O)Nc1ccc(-c2c(C#N)c3ccc(OC4CCOCC4)cc3n2C2CCC2)cc1)C1CC1 . Reported melting point?
126 to 128 °C

Item under review: CC(C)c1ccc(CNc2ccc(-c3c(C#N)c4ccc(OC5CCOCC5)cc4n3C3CCC3)cc2)cc1 . Reported melting point?
157 to 159 °C

Item under review: N#Cc1c(-c2ccc(Oc3ncccn3)cc2)n(C2CCC2)c2cc(OC3CCOCC3)ccc12 . Reported melting point?
168 to 169 °C

----------
property: melting point

Item under review: COCCOc1ccc2c(C#N)c(-c3ccc(NC(=O)OC4CCCC4)cc3)n(C3CCC3)c2c1 . Reported melting point?
168 to 169 °C

Item under review: C[C@@H](OC(=O)Nc1ccc(-c2c(C#N)c3ccc(-c4cc(N(C)C)ccn4)cc3n2C2CCC2)cc1)C1CC1 . Reported melting point?
203 to 208 °C

Item under review: CCCS(=O)(=O)Nc1ccc(-c2c(C#N)c3ccc(-c4ccnn4C)cc3n2C2CCC2)cc1 . Reported melting point?
241 to 242 °C

Item under review: CC(C)S(=O)(=O)Nc1ccc(-c2c(C#N)c3cc(Oc4ncccn4)ccc3n2C2CCC2)cc1 . Reported melting point?
206 to 207 °C
